System: Helicobacter pylori
Assay: Antibacterial activity against metronidazole-sensitive Helicobacter pylori at 8 ug/disk after 3 to 5 days by paper disk diffusion method
Format: functional
Conditions: read-out: DIZ
endpoint: zone of inhibition at 8 µg/disc (mm)
One number for each entry, in mm.

Return reported zone of inhibition at 8 µg/disc values for all items listed beneath this line.
1. O=[N+]([O-])c1ccc(-c2nnc(SCc3c(Cl)cccc3Cl)s2)o1
2. O=[N+]([O-])c1ccc(-c2nnc(SCc3ccc(Cl)cc3)s2)o1
3. O=[N+]([O-])c1ccc(-c2nnc(SCc3cccc(Cl)c3Cl)s2)o1
4. O=[N+]([O-])c1ccc(-c2nnc(SCc3ccc(Cl)c(Cl)c3)s2)o1
5. O=[N+]([O-])c1ccc(-c2nnc(SCc3ccccc3)s2)o1
6. O=[N+]([O-])c1ccc(-c2nnc(SCc3cccc(Cl)c3)s2)o1
7. O=[N+]([O-])c1ccc(-c2nnc(SCc3ccc(Cl)cc3Cl)s2)o1

[out]
1: 21; 2: 6; 3: 15; 4: 11; 5: 18; 6: 21; 7: 13

[in] What does the record list as zone of inhibition at 8 µg/disc for O=[N+]([O-])c1ccc(-c2nnc(SCc3ccccc3Cl)s2)o1 ?
[out] 19

----------
Assign zone of inhibition at 32 µg/disc to each entry below.
System: Helicobacter pylori
Test: Antibacterial activity against metronidazole-sensitive Helicobacter pylori at 32 ug/disk after 3 to 5 days by paper disk diffusion method
Format: functional
Conditions: read-out: DIZ
Numbers only, in mm.

[
  {
    "compoundString": "O=[N+]([O-])c1ccc(-c2nnc(SCc3ccc(Cl)c(Cl)c3)s2)o1",
    "endpointResult": 15
  }
]

Return reported zone of inhibition at 32 µg/disc values for all items listed beneath this line.
1. O=[N+]([O-])c1ccc(-c2nnc(SCc3ccccc3)s2)o1
2. O=[N+]([O-])c1ccc(-c2nnc(SCc3ccc(Cl)cc3Cl)s2)o1

[out]
25
15

----------
Tested on: Helicobacter pylori
Assay: Antibacterial activity against metronidazole-sensitive Helicobacter pylori at 32 ug/disk after 3 to 5 days by paper disk diffusion method
Assay type: functional
Conditions: read-out: DIZ
endpoint: zone of inhibition at 32 µg/disc
Answer format: number, then unit.

// solved cases for zone of inhibition at 32 µg/disc follow
[
  {
    "compoundString": "O=[N+]([O-])c1ccc(-c2nnc(SCc3c(Cl)cccc3Cl)s2)o1",
    "zone of inhibition at 32 µg/disc": "26 mm"
  },
  {
    "compoundString": "O=[N+]([O-])c1ccc(-c2nnc(SCc3ccccc3Cl)s2)o1",
    "zone of inhibition at 32 µg/disc": "21 mm"
  },
  {
    "compoundString": "O=[N+]([O-])c1ccc(-c2nnc(SCc3ccc(Cl)cc3)s2)o1",
    "zone of inhibition at 32 µg/disc": "19 mm"
  }
]

Return reported zone of inhibition at 32 µg/disc values for all items listed beneath this line.
1. O=[N+]([O-])c1ccc(-c2nnc(SCc3cccc(Cl)c3)s2)o1
2. O=[N+]([O-])c1ccc(-c2nnc(SCc3cccc(Cl)c3Cl)s2)o1

[out]
28 mm
16 mm
